Source: ChEMBL document CHEMBL4689842

# System: HEK-293T
# EXPERIMENT NOTES: Multiplex assay against HEK293T
# Assay type: toxicity, cell-based
# SETUP CONDITIONS: human, 12 h, 10 µM, compound concentration 10 uM, replicate 2
Population Fragmented Nuclei (%) reference
Give the quantity in %, number only.

Recorded results for 5 compounds are shown here.
COMPOUND	QUANTITATIVE READOUT
Nc1nc2c(c(N3CCNCC3)n1)CCC1=C2[C@@H]2CCCC[C@@H]2O1	5
CCn1c(-c2nonc2N)nc2cnc(Oc3cccc(NC(=O)c4ccc(OCCN5CCOCC5)cc4)c3)cc21 [GSK-269962A]	4
N#Cc1cnc(Nc2cc(NC[C@H]3CNCCO3)c(C(F)(F)F)cn2)cn1	6
CCOc1cc(N2CCC(O)CC2)ccc1Nc1ncc2c(n1)N(C1CCCC1)CCC(=O)N2C	9
CCc1cc2c(cc1CC)CC(NC[C@H](O)c1ccc(O)c3[nH]c(=O)ccc13)C2	8

Quote Population Fragmented Nuclei (%) reported for `CN(C)CCOc1ccc(-c2nc(-c3ccncc3)c(-c3ccc4c(c3)CC/C4=N\O)[nH]2)cc1` please.
7

Quote Population Fragmented Nuclei (%) reported for `COc1ccc(NS(=O)(=O)c2sc3ccc(Cl)cc3c2C)cc1N1CCNCC1.Cl` please.
3

Quote Population Fragmented Nuclei (%) reported for `CCOc1cc2ncc(C#N)c(Nc3ccc(OCc4cccc(F)c4)c(Cl)c3)c2cc1NC(=O)/C=C/CN(C)C` please.
3

Quote Population Fragmented Nuclei (%) reported for `CC(C)(C)c1cnc(CSc2cnc(NC(=O)C3CCNCC3)s2)o1` please.
2

Quote Population Fragmented Nuclei (%) reported for CCC(=O)O[C@]1(C(=O)SCF)[C@H](C)C[C@H]2[C@@H]3C[C@H](F)C4=CC(=O)C=C[C@]4(C)[C@@]3(F)[C@@H](O)C[C@@]21C [FLUTICASONE PROPIONATE] please.
4

Quote Population Fragmented Nuclei (%) reported for `CC(C)N1CCC(C)(C)c2cc(C#Cc3ccc(C(=O)O)cc3)ccc21` please.
32

Quote Population Fragmented Nuclei (%) reported for `CC(=O)c1cc(-c2cc(C(=O)NC3CC3)ccc2C)c2ncccn12` please.
6

Quote Population Fragmented Nuclei (%) reported for `O=C(O)c1ccc2cc(-c3ccc(O)c(C45CC6CC(CC(C6)C4)C5)c3)ccc2c1` please.
8

Quote Population Fragmented Nuclei (%) reported for `CNc1oc(-c2cccc3ccccc23)nc1C#N` please.
86

Quote Population Fragmented Nuclei (%) reported for `CCCn1c(=O)c2[nH]c(C34CC5CC(CC3C5)C4)nc2n(CCC)c1=O` please.
5

----------
# System: Fibroblast
# EXPERIMENT NOTES: Multiplex assay against human fibroblast
# Type: toxicity, cell-based
# SETUP CONDITIONS: 12 h, 10 µM, compound concentration 10 uM, replicate 2
QUANTITY NAME: Population Normal (%)
Give the quantity in %, number only.

Recorded results for 5 compounds are shown here.
COMPOUND	Population Normal (%)
CCCn1c(=O)c2[nH]c(C34CC5CC(CC3C5)C4)nc2n(CCC)c1=O	96
Cc1cn(-c2cc(NC(=O)c3ccc4c(c3)CN(c3cncnc3)C[C@@H]4C)cc(C(F)(F)F)c2)cn1	63
Cl.Cl.NC1(c2ccc(-c3nc4ccn5c(=O)[nH]nc5c4cc3-c3ccccc3)cc2)CCC1	30
Cc1cc2c(cc1N1C(=O)c3cccc4c(CCCO)ccc(c34)C1=O)n(C)c(=O)n2C	90
CNC(=O)c1cc(Oc2ccc(NC(=O)Nc3cc(C(C)(C)C)nn3-c3ccc4ncccc4c3)c(F)c2)ccn1	55

Quote Population Normal (%) reported for CN(C)C/C=C/C(=O)Nc1cc2c(Nc3ccc(F)c(Cl)c3)ncnc2cc1O[C@H]1CCOC1.O=C(O)/C=C\C(=O)O.O=C(O)/C=C\C(=O)O [AFATINIB DIMALEATE] please.
65

Quote Population Normal (%) reported for `COc1ccc(NS(=O)(=O)c2sc3ccc(Cl)cc3c2C)cc1N1CCNCC1.Cl` please.
95

Quote Population Normal (%) reported for `Nc1ccc(C(=O)Nc2cccc(-c3nc(N4CCOCC4)c4oc5ncccc5c4n3)c2)cn1` please.
80

----------
# Tested on: HEK-293T
# EXPERIMENT NOTES: Multiplex assay against HEK293T
# Assay type: toxicity, cell-based
# SETUP CONDITIONS: human, 24 h, 1 µM, compound concentration 1 uM, replicate 1
Population Fragmented Nuclei (%) reference
Give the quantity in %, number only.

Recorded results for 3 compounds are shown here.
COMPOUND	UNITS SYMBOL	QUANTITATIVE READOUT
CN(C)C/C=C/C(=O)Nc1cc2c(Nc3ccc(F)c(Cl)c3)ncnc2cc1O[C@H]1CCOC1.O=C(O)/C=C\C(=O)O.O=C(O)/C=C\C(=O)O [AFATINIB DIMALEATE]	%	17
Cc1cn(-c2cc(NC(=O)c3ccc4c(c3)CN(c3cncnc3)C[C@@H]4C)cc(C(F)(F)F)c2)cn1	%	16
CNc1oc(-c2cccc3ccccc23)nc1C#N	%	17

Consider now this further compound.
Quote Population Fragmented Nuclei (%) reported for CC(C)Oc1ccc(C(=O)N[C@H](CNC(=O)CN(C)C)Cc2ccc(-c3cn4cccc([C@H](C)O)c4n3)cc2)cc1Cl [GSK-923295A] please.
10

----------
# Test system: U2OS
# EXPERIMENT NOTES: Multiplex assay against U2OS
# Format: toxicity, cell-based
# SETUP CONDITIONS: human, 48 h, 10 µM, compound concentration 10 uM, replicate 1
QUANTITY NAME: Population Mitotic Cells (%)
Give the quantity in %, number only.

Recorded results for 4 compounds are shown here.
COMPOUND	Population Mitotic Cells (%)
Cc1nc(Cc2cccc(C(F)(F)F)c2)sc1-c1ccc(C(N)=O)nc1 [TP-024n]	44
C1=N/C2=N/c3ccc(OCCN4CCCC4)c(c3)COC/C=C\COCc3cccc(c3)C(=C1)N2	0
Cl.Cl.Nc1ncnc2c1c(-c1cccc(OCc3ccccc3)c1)cn2[C@H]1C[C@@H](CN2CCC2)C1	0
CC(=O)c1cc(-c2cc(C(=O)NC3CC3)ccc2C)c2ncccn12	30

Quote Population Mitotic Cells (%) reported for `COc1ccc(NS(=O)(=O)c2sc3ccc(Cl)cc3c2C)cc1N1CCNCC1.Cl` please.
26

----------
Population Apoptotic (%) reference
# Tested on: HEK-293T
# EXPERIMENT NOTES: Multiplex assay against HEK293T
# Format: toxicity, cell-based
# SETUP CONDITIONS: human, 24 h, 10 µM, compound concentration 10 uM, replicate 1
Give the quantity in %, number only.

Recorded results for 5 compounds are shown here.
COMPOUND	Population Apoptotic (%)
Cc1cn(-c2cc(NC(=O)c3ccc4c(c3)CN(c3cncnc3)C[C@@H]4C)cc(C(F)(F)F)c2)cn1	15
COc1cc2c(NC3CCN(C(C)C)CC3)nc(N3CCC(F)(F)CC3)nc2cc1OCCCN1CCCC1	85
CC(C)N1CCC(C)(C)c2cc(C#Cc3ccc(C(=O)O)cc3)ccc21	37
CNC(=O)c1cc(Oc2ccc(NC(=O)Nc3cc(C(C)(C)C)nn3-c3ccc4ncccc4c3)c(F)c2)ccn1 [REBASTINIB]	46
CNc1oc(-c2cccc3ccccc23)nc1C#N	15

Quote Population Apoptotic (%) reported for CCC(=O)O[C@]1(C(=O)SCF)[C@H](C)C[C@H]2[C@@H]3C[C@H](F)C4=CC(=O)C=C[C@]4(C)[C@@]3(F)[C@@H](O)C[C@@]21C [FLUTICASONE PROPIONATE] please.
61

Quote Population Apoptotic (%) reported for N#Cc1cnc(Nc2cc(NC[C@H]3CNCCO3)c(C(F)(F)F)cn2)cn1 [SRA-737] please.
25

Quote Population Apoptotic (%) reported for CC(C)(C)c1cnc(CSc2cnc(NC(=O)C3CCNCC3)s2)o1 [BMS-387032] please.
27

Quote Population Apoptotic (%) reported for `Cl.Cl.NC1(c2ccc(-c3nc4ccn5c(=O)[nH]nc5c4cc3-c3ccccc3)cc2)CCC1` please.
41

----------
# Test system: Fibroblast
# EXPERIMENT NOTES: Multiplex assay against human fibroblast
# Type: toxicity, cell-based
# SETUP CONDITIONS: 24 h, 1 µM, compound concentration 1 uM, replicate 2
Population Pyknosed Nuclei (%) reference
Give the quantity in %, number only.

Recorded results for 3 compounds are shown here.
COMPOUND	UNITS SYMBOL	QUANTITATIVE READOUT
COc1cc(N2CCC(N(C)C)CC2)ccc1Nc1ncc(Cl)c(Nc2ccccc2P(C)(C)=O)n1	%	17
CCn1c(-c2nonc2N)nc2cnc(Oc3cccc(NC(=O)c4ccc(OCCN5CCOCC5)cc4)c3)cc21 [GSK-269962A]	%	11
CCc1cc2c(cc1CC)CC(NC[C@H](O)c1ccc(O)c3[nH]c(=O)ccc13)C2 [INDACATEROL]	%	9

Quote Population Pyknosed Nuclei (%) reported for `Cl.Cl.Nc1ncnc2c1c(-c1cccc(OCc3ccccc3)c1)cn2[C@H]1C[C@@H](CN2CCC2)C1` please.
21

Quote Population Pyknosed Nuclei (%) reported for `COc1ccc(NS(=O)(=O)c2sc3ccc(Cl)cc3c2C)cc1N1CCNCC1.Cl` please.
12

Quote Population Pyknosed Nuclei (%) reported for CN(C)C/C=C/C(=O)Nc1cc2c(Nc3ccc(F)c(Cl)c3)ncnc2cc1O[C@H]1CCOC1.O=C(O)/C=C\C(=O)O.O=C(O)/C=C\C(=O)O [AFATINIB DIMALEATE] please.
17

Quote Population Pyknosed Nuclei (%) reported for CNC(=O)c1nn(C)c2c1C(C)(C)Cc1cnc(Nc3ccc(N4CCN(C)CC4)cc3)nc1-2 [MILCICLIB] please.
6

Quote Population Pyknosed Nuclei (%) reported for `Nc1ccc(C(=O)Nc2cccc(-c3nc(N4CCOCC4)c4oc5ncccc5c4n3)c2)cn1` please.
18
